# Lookup of reported pIC50 keyed by entry
# Tested on: MMAC-SF;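 further: growth inhibition of human MMAC-SF cells, read out with a cell viability assay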
# Measurement Notes: cells
# Format: functional, cell-based
# Condition: Homo sapiens
# Description: SANGER: Inhibition of human MMAC-SF cell growth in a cell viability assay.
pIC50: −log10 of the molar value.
Property Label: pIC50

INSERT INTO results (compound, result) VALUES
  ('CC[C@]1(O)C[C@@H]2CN(CCc3c([nH]c4ccccc34)[C@@](C(=O)OC)(c3cc4c(cc3OC)N(C)[C@H]3[C@@](O)(C(=O)OC)[C@H](OC(C)=O)[C@]5(CC)C=CCN6CC[C@]43[C@@H]65)C2)C1 [VINBLASTINE]', 7.82),
  ('Cc1n[nH]c2ccc(-c3cncc(OC[C@@H](N)Cc4c[nH]c5ccccc45)c3)cc12 [A-443654]', '< 5.99'),
  ('Cc1[nH]c(/C=C2\C(=O)Nc3ccc(S(=O)(=O)Cc4c(Cl)cccc4Cl)cc32)c(C)c1C(=O)N1CCC[C@@H]1CN1CCCC1 [PHA-665752]', '< 5.70'),
  ('CCn1c(-c2nonc2N)nc2cnc(Oc3cccc(NC(=O)c4ccc(OCCN5CCOCC5)cc4)c3)cc21 [GSK-269962A]', '< 5.60');
